# Assay: Intravenous pharmacokinetics and tolerability in mice
# Type: in vivo, male Swiss Outbred mice
# Measurement Setup: mouse, plasma, iv; male Swiss outbred mice, i.v. 15 mg/kg
# Method: Briefly, intravenous pharmacokinetics and systemic exposure of WEHI-7326 were assessed in non-fasted male Swiss Outbred mice. WEHI-7326 was administered via intravenous bolus injection (10 ml/kg dose volume) and blood samples were collected at 1, 2, 5, 15 and 30 min and 1, 2, 4, 7.5 and 24 h post-dose (n = 2 mice per time point). […] Parameters were calculated with standard calculations: PlasmaCL=DoseIV/AUCIVVSS=AUMCIV/AUCIV*PlasmaCL […] a Measured physicochemical and solubility data for WEHI-7326. […]
Reported Property: clearance
Your reply should be a number followed by the unit it is expressed in.

// fetch clearance given entry COc1ccc(CNc2nc(NCc3ccc(CN)cc3)nc(NN3CC(=O)NC3=O)n2)cc1 [WEHI-7326] 53 mL/min/kg

====

# Assay: Intravenous pharmacokinetics and tolerability in mice
# Format: in vivo, male Swiss Outbred mice
# Measurement Setup: mouse, plasma, iv; male Swiss outbred mice, i.v. 15 mg/kg
Reported Property: half-life (min)
One number for each entry, in min.

// fetch half-life given entry COc1ccc(CNc2nc(NCc3ccc(CN)cc3)nc(NN3CC(=O)NC3=O)n2)cc1 [WEHI-7326] 378

====

# Tested on: H1437
# Assay: Cell growth inhibition assay, H1437
# Type: cell-based
# Measurement Setup: Homo sapiens, NCI-H1437; H1437, non-small cell lung carcinoma; 72 h viability assay, CellTiterGlo; mean of 3 ± SEM; read-out: IC50 (inhibition of cellular proliferation)
Reported Property: pIC50
One number for each entry, as −log10 of the molar value.

Please report pIC50 with H1437 for item COc1ccc(CNc2nc(NCc3ccc(CN)cc3)nc(NN3CC(=O)NC3=O)n2)cc1 . 7.53

====

# Assay: Intravenous pharmacokinetics and tolerability in mice
# Type: in vivo, male Swiss Outbred mice
# Measurement Setup: mouse, plasma, iv; male Swiss outbred mice, i.v. 15 mg/kg; read-out: Apparent volume of distribution
Reported Property: Vd
Your reply should be a number followed by the unit it is expressed in.

// fetch Vd given entry COc1ccc(CNc2nc(NCc3ccc(CN)cc3)nc(NN3CC(=O)NC3=O)n2)cc1 4.7 L/kg
